B1: tRNA (parent)
chain: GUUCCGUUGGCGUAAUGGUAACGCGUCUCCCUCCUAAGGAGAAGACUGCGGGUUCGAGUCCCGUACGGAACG

variants of: B1; assay: yeast fitness relative to wild type (ratio to wild type); higher = fitter; tRNA-Arg(CCU), competitive growth, 37 C, YPD
Fewer inactive variants are shown than the library holds.
parameter: yeast fitness

1. U3A C4U U7A C24U C61A C62G A65G = ≤ 0.5
2. U28C A37U A57C A69U A70C = ≤ 0.5
3. U3A A65G = 0.899
4. A20U A42C G48A = 0.543
5. U3A U26C A43C A70U = ≤ 0.5
6. A15G G50A U54A A57C = 0.583
7. C24G C31G A36G G44A A69G = ≤ 0.5
8. U13C C33U = 0.744
9. C5G A45C A57U = ≤ 0.5
10. U2C C5A C24A = ≤ 0.5
11. U8A G25C A37C C66U = ≤ 0.5

Origin of measurements: the RNAGym collection of RNA variant scans (doi:10.1126/science.aae0568)
